TEST_SYSTEM: human recombinant dopamine D2L receptor (Homo sapiens)
Sequence (P14416 whole entry): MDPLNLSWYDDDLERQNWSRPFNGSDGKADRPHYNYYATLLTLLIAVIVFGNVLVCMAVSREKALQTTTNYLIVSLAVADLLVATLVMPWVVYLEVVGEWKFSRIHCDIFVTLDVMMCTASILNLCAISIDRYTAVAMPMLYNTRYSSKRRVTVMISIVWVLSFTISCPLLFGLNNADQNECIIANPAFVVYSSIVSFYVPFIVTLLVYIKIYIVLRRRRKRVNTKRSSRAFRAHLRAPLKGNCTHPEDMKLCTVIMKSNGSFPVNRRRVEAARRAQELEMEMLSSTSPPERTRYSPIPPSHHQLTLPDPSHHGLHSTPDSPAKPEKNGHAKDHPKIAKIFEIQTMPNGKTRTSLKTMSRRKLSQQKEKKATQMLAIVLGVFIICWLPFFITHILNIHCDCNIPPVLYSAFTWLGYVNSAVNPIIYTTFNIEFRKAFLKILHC
ASSAY_EXPLANATION: Dopamine D2L radioligand binding assay ([3H]Spiperone)
PROTOCOL_CONDITIONS: compound at 1 μM, 0.16 nM [3H]Spiperone, CHO cells, read-out: Percent Inhibition of ligand binding, Dopamine (1μM)
We begin with a simple list: items and their reported inhibition at 1 µM.
MEASUREMENT_KIND: inhibition at 1 µM (%)

In [3]: df
Out[3]:
                                   compound                               test_system    measurement_kind  unit_annotation  observed_measurement
0  Cc1ccc2c(c1)c1c(n2CC(O)(c2ccc(F)cc2)C2CCCCC2)CCN(C)C1 (stereo not drawn)  human recombinant dopamine D2L receptor (Homo sapiens)  inhibition at 1 µM                %                    13
1  Cc1ccc2c(c1)c1c(n2CC(=O)c2ccccc2)CCN(C)C1  human recombinant dopamine D2L receptor (Homo sapiens)  inhibition at 1 µM                %                     4
2  CC[C@@](O)(Cn1c2c(c3cc(C)ccc31)CN(C)CC2)c1ccncc1  human recombinant dopamine D2L receptor (Homo sapiens)  inhibition at 1 µM                %                     9
3  CC[C@@](O)(Cn1c2c(c3cc(C)ccc31)CN(C)CC2)c1ccc(F)cc1  human recombinant dopamine D2L receptor (Homo sapiens)  inhibition at 1 µM                %                     6
4  CN1CCc2c(c3cc(Cl)ccc3n2CC(=O)c2ccc(Cl)cc2)C1  human recombinant dopamine D2L receptor (Homo sapiens)  inhibition at 1 µM                %                    44
5  CN1CCc2c(c3cc(Cl)ccc3n2CC(=O)c2ccccc2)C1  human recombinant dopamine D2L receptor (Homo sapiens)  inhibition at 1 µM                %                    73
6  CCC(O)(Cn1c2c(c3cc(C)ccc31)CN(C)CC2)c1ccncc1 (stereo not drawn)  human recombinant dopamine D2L receptor (Homo sapiens)  inhibition at 1 µM                %                     9
7  Cc1ccc2c(c1)c1c(n2CCc2ccc(C)nc2)CCN(CCCCO)C1  human recombinant dopamine D2L receptor (Homo sapiens)  inhibition at 1 µM                %                    10
8  Cc1ccc2c(c1)c1c(n2CCc2ccc(C(F)(F)F)nc2)CCNC1  human recombinant dopamine D2L receptor (Homo sapiens)  inhibition at 1 µM                %                    -8

----------
TEST_SYSTEM: human recombinant serotonin (5-Hydroxytryptamine) 5-HT2A receptor (Homo sapiens, UniProt P28223)
Construct: expressed in transfected cells; host or cells: Chinese hamster ovary (CHO-K1) cells
ASSAY_EXPLANATION: Serotonin 5-HT2A radioligand binding assay ([3H]Ketanserin)
PROTOCOL_CONDITIONS: compound at 1 μM; 0.5 nM [3H]Ketanserin; CHO-K1 cells; read-out: Percent Inhibition of ligand binding, Serotonin (1 μM) 5-HT2A
MEASUREMENT_KIND: inhibition at 1 µM (%)

>>> df
                                   compound    measurement_kind  observed_measurement
0  Cc1ccc2c(c1)c1c(n2CC(O)c2ccncc2)CCN(C)C1 (stereo not shown)  inhibition at 1 µM                    86
1  Cc1ccc2c(c1)c1c(n2CC(=O)c2ccc(F)cc2)CCN(C)C1  inhibition at 1 µM                    98
2  CN1CCc2c(c3cc(F)ccc3n2CC(C)(O)c2ccncc2)C1 (stereo not shown)  inhibition at 1 µM                    77
3  Cc1ccc2c(c1)c1c(n2CC(O)(c2ccc(F)cc2)C2CCCCC2)CCN(C)C1 (stereo not shown)  inhibition at 1 µM                    97
4  Cc1ccc2c(c1)c1c(n2CC(O)c2ccc(F)cc2)CCN(C)C1 (stereo not shown)  inhibition at 1 µM                    91
5  CN1CCc2c(c3cc(Cl)ccc3n2CC(O)c2ccncc2)C1 (stereo not shown)  inhibition at 1 µM                    82
6  Cc1ccc2c(c1)c1c(n2CCc2ccc(CCCN)nc2)CCN(C)C1  inhibition at 1 µM                    78
